Hey, just so you know, these numbers are from ChEMBL document CHEMBL5532720.

Reported pIC50 is given for each of the following compounds.
# Tested on: RCC4
# measurement-notes: Antiproliferative activity against human RCC4 cells incubated for 48 hrs by XTT assay
# Assay type: functional, cell-based
# stated-conditions: RCC4, 48 h
Please treat pIC50 as minus the base-10 logarithm of the molar concentration.

O=C(Nc1cccc(Cl)c1)Nc1nc2cc([N+](=O)[O-])ccc2[nH]1 5.52

Field: pIC50 (RCC4). Entry: O=C(Nc1cccc(Cl)c1)Nc1nc2ccc(-c3cccc4ccccc34)cc2s1 5.10

Field: pIC50 (RCC4). Entry: Cc1noc(C)c1-c1ccc2nc(NC(=O)Nc3cccc(Cl)c3)sc2c1 5.30

----------
# Test system: 786-0
# measurement-notes: Antiproliferative activity against human 786-0 cells incubated for 48 hrs by XTT assay
# Assay type: functional, cell-based
# stated-conditions: 786-0, 48 h
reported-endpoint: pIC50
Please treat pIC50 as minus the base-10 logarithm of the molar concentration.

Known results for molecules:
Nc1ccc2nc(NC(=O)Nc3cccc(Cl)c3)sc2c1 4.70
O=C(Nc1cccc(Cl)c1)Nc1nc2ccc([N+](=O)[O-])cc2o1 4.70

Next up:
Recorded pIC50 for O=C(Nc1cccc(Cl)c1)Nc1nc2cc([N+](=O)[O-])ccc2[nH]1 , please? 5.40

----------
# measurement-notes: Lipophilicity, logD of compound at pH 7.4
# Assay type: physicochemical
# stated-conditions: buffer
reported-endpoint: logD
Please reply with the number alone, leaving off any unit.

Recorded logD for O=C(Nc1cc(Cl)cc(Cl)c1)Nc1nc2ccc([N+](=O)[O-])cc2s1 , please? 2.86

----------
# System: 786-0
# measurement-notes: Antiproliferative activity against human 786-0 cells incubated for 48 hrs by XTT assay
# Type: functional, cell-based
# stated-conditions: 786-0, 48 h
Reported IC50 is given for each of the following molecules.
Expressed in µM, but write only the number.

Known results for molecules:
Cc1noc(C)c1-c1ccc2nc(NC(=O)Nc3cccc(Cl)c3)sc2c1 2.5
Cc1ccc(NC(=O)Nc2nc3ccc([N+](=O)[O-])cc3o2)cc1 4
O=C(Nc1ccccc1)Nc1nc2ccc([N+](=O)[O-])cc2s1 5

Recorded IC50 for O=C(Nc1cccc(Cl)c1)Nc1nc2ccc(-c3cccc4ccccc34)cc2s1 , please? 7

----------
# measurement-notes: Aqueous solubility of compound in water
# Format: physicochemical
reported-endpoint: solubility (µM)
Expressed in µM, but write only the number.

Recorded solubility for O=C(Nc1cc(Cl)cc(Cl)c1)Nc1nc2ccc([N+](=O)[O-])cc2s1 , please? 1.2

----------
# measurement-notes: Oral bioavailability in NOD SCID mouse at 50 mg/kg
# Type: ADME, organism-based
# stated-conditions: in vivo
reported-endpoint: bioavailability (%)
Expressed in %, but write only the number.

Recorded bioavailability for O=C(Nc1cc(Cl)cc(Cl)c1)Nc1nc2ccc([N+](=O)[O-])cc2s1 , please? 39

----------
# measurement-notes: Stability in mouse plasma assessed as half-life
# Format: ADME, cell-free
reported-endpoint: half-life

Recorded half-life for O=C(Nc1cc(Cl)cc(Cl)c1)Nc1nc2ccc([N+](=O)[O-])cc2s1 , please? > 4.82 h

----------
# measurement-notes: Half-life in NOD SCID mouse at 1 mg/kg, iv
# Assay type: ADME, organism-based
# stated-conditions: in vivo
reported-endpoint: half-life (min)
Expressed in min, but write only the number.

Recorded half-life for O=C(Nc1cc(Cl)cc(Cl)c1)Nc1nc2ccc([N+](=O)[O-])cc2s1 , please? 24
